testedTarget: UniProt P32664
Sequence (P32664 whole entry): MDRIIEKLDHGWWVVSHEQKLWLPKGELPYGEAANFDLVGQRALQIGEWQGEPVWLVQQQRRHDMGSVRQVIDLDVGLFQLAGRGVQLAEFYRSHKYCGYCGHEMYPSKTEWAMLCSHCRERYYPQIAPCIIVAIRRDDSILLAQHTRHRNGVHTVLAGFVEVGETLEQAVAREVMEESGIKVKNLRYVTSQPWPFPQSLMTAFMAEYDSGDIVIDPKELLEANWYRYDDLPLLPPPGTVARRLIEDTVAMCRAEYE
runDescription: in vitro de-capping of NAD-RNA, gel assay, NudC activity plotted against ppGpp
Format: biochemical
quantity: Ki

Param readout = Ki; param system = UniProt P32664; param query = Nc1nc2c(ncn2[C@@H]2O[C@H](COP(=O)(O)OP(=O)(O)O)[C@@H](OP(=O)(O)OP(=O)(O)O)[C@H]2O)c(=O)[nH]1 ; response: value
~70 µM
